Molecular target: DRB1*0405 (Homo sapiens, UniProt P01903+P01911, A100R/A169T/D86S/F76Y/I96L/K127E/L162R/M171V/N62H/P40V/Q125Y/R42H/S133A/S149N/S66Y/V115G/V209L/W38E)
Assay: biochemical
Assay type: binding
No end group written: not given here.
Quantity: log10 IC50 (log10 of the value in µM)
// units: µM (pre-log); metric: IC50; scale: log10

>>> observed_measurement("DSEIAYKYAQLADTN [Peptide 89.0012]")
1.04
>>> observed_measurement("DWVMAIFGVNPTVAE [Peptide 89.0079]")
-1.07
>>> observed_measurement("ETHMVIEPPKLRSAT [Peptide 89.0103]")
0.55
>>> observed_measurement("PDGQAEQATSNYYIV [Peptide 1543.43]")
0.71
>>> observed_measurement("LLEFIDDSMENSIQA [Peptide 90.0077]")
-0.27

// log10 IC50 lookup, key: IYIIEEDTCTMVTGK [Peptide 90.0204]
1.27

Item TAIFGVNPTIAEGFK [Peptide 89.0024] has what recorded log10 IC50?
-1.77

Look up log10 IC50: PPLLITTNINPMLDA [Peptide 89.0139]
0.53

Name the reported log10 IC50 value associated with the sequence CIHSTATDLRTLQQM [Peptide 1543.45]
-0.43

---

Here, each record is paired with measured IC50 data.
Target: DRB1*1201 (Homo sapiens, UniProt P01903+P01911, A100R/A169T/D57E/D86V/F55L/H45Y/K41T/L162R/M171V/P40S/Q125H/Q178H/Q39Y/Q99D/R42G/S66L/T262R/V114A/V67L/W38E/Y59H/Y61H/Y89S)
Assay: biochemical
Assay type: binding
No end group written: not given here.
Report only the number, with the unit nM understood.

// below: answered sequences
>>> observed_measurement("RETIEKLLSKLLCVS [Peptide 89.0006]")
523
>>> observed_measurement("LKAICIEKQSRAAKR [Peptide 90.0032]")
11800
>>> observed_measurement("GKSYFGMSLIQFLKG [Peptide 89.0075]")
499

Shifting focus to the sequence that follows.
So what's the measured IC50 for this one? FKKFLKGIPKKSCML [Peptide 89.0073]
709

---

Each entry below carries its reported log10 of IC50.
Target: A*2601 (Homo sapiens, UniProt P04439, A114D/A173T/A270S/D101N/D185E/E277Q/E87N/F33Y/G231S/I121R/I218V/K168Q/L180W/L300P/L318F/P208A/P217A/Q86R/Q94H/R138Q/S129P/T187R/T323A/T345S/V100A/V358M)
Assay: biochemical
Assay type: binding
No end group written: not given here.
Use the decimal logarithm of IC50 (nM).

>>> observed_measurement("ITDDSDIAY [Peptide 1580.14]")
3.87
>>> observed_measurement("GTDCNGWFY [Peptide 1593.01]")
2.50
>>> observed_measurement("LTDQLIHLY [Peptide 9018.0026]")
2.64
>>> observed_measurement("YTPGPGVRY [Peptide 9015.0026]")
1.43
>>> observed_measurement("GTEELRSLY [Peptide 9015.0010]")
2.82

# input sequence: LYDQLIHMYY [Peptide 9018.0031] ; wanted: its log10 of IC50
3.64

Which log10 of IC50 reading was recorded for the sequence DLDDQLIHLY [Peptide 9018.0022] ?
1.58

Reported log10 of IC50 for DLADQLIHLY [Peptide 9015.0184] : what is it?
0.79

Can you look up the measured log10 of IC50 of LTDDSDIAY [Peptide 1580.11] for me?
3.59

Any idea what log10 of IC50 was measured for HMDREKHPEY [Peptide 9018.0007] ?
3.44

---

Target: A*3002 (Homo sapiens, UniProt P04439, D101N/D140H/D185E/E176R/F33S/G80R/H175R/K168Q/Q94H/R138E/R41S/V100E)
Sequence (P04439 whole entry, looked up, the tested form may be a part, stated change not applied): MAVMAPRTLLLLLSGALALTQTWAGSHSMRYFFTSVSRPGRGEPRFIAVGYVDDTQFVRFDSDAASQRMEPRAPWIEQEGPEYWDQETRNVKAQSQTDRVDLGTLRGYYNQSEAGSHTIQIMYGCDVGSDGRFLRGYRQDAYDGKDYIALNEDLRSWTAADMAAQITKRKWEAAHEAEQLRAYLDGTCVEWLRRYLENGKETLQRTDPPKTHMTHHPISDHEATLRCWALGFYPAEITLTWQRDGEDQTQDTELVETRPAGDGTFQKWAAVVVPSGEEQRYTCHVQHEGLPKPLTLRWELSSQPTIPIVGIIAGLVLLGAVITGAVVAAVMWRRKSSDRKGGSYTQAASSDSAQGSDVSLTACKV
Assay: biochemical
Type: binding
No end group written: not given here.
Quantity: pIC50
Conceptually, pIC50 converts a concentration in mol/L into minus its log10.

Sample records with pIC50:
>>> observed_measurement("LTDKIIDHY [Peptide 1593.09]")
5.17
>>> observed_measurement("RFHNIMGRW [Peptide 78.0381]")
7.57
>>> observed_measurement("VTETLEEITGY [Peptide 9012.0178]")
4.95
>>> observed_measurement("VTQGLPREY [Peptide 9012.0128]")
8.77
>>> observed_measurement("RTDGNRQIIGY [Peptide 9012.0158]")
7.02
>>> observed_measurement("LTSALEIPY [Peptide 1549.40]")
6.79
>>> observed_measurement("ETDLDMLRHLY [Peptide 9012.0172]")
8.00
>>> observed_measurement("QAEPDTSNY [Peptide 1549.03]")
5.00

Find the recorded pIC50 belonging to TTSPLNTSY [Peptide 9012.0116] and report it.
7.92

Tell me the measured pIC50 of GTDQATPGPAY [Peptide 9012.0160] , please.
6.63

Quick check: pIC50 of KFYSKISEY [Peptide 78.0363] ?
8.02

What pIC50 value was documented for this sequence, LSSALEIPY [Peptide 1549.01] ?
7.08

Query: pIC50; subject: CQDKILTHY [Peptide 86.0141]
6.73

Could you tell me which pIC50 is on file for NTDILTVTY [Peptide 1593.17] ?
5.70

May I ask what pIC50 has been recorded for ESNSLKCLRY [Peptide 1580.26] ?
6.22

For the sequence shown here, ATDVSHRGLY [Peptide 1593.10] , give the reported pIC50.
7.82

Consider the sequence QAEQATSNYY [Peptide 78.0022] and give its measured pIC50.
5.84

---

Examples of sequences with documented A2 Bind. follow.
Molecular target: A2.1 HLA molecules (Homo sapiens, UniProt P04439, D140Y/D185E/D98H/E176V/E277Q/G131W/G231S/I119V/I121R/I166T/I218V/L300P/L318F/N151K/N90K/P208A/P217A/Q86G/Q94H/R138H/R169H/T345S)
Type: binding
Design: scale not given here
Enter the number alone.

>>> observed_measurement("GLWCVLFFV")
0.4700
>>> observed_measurement("AVLSIVNRV")
0.0132
>>> observed_measurement("ALISFLLLA")
0.2200
>>> observed_measurement("ALREEEEGV")
0.0210

Look at this sequence and give its reported A2 Bind.. FLGAAGSTM
0.0190

# A2 Bind. lookup, item IMIVGGLVGL
0.0252

Field request: A2 Bind. | item: LMDLLMFST
0.0460

Query (sequence): TLMSIVSSL ; field requested: A2 Bind.
0.2000

Which A2 Bind. is reported for this sequence? ALGRNSFEV
0.0570

Given the entry KMADLVGFLV , report its measured A2 Bind..
1.5000

Please give the measured A2 Bind. for this sequence: LLGRNAFEV
0.0390

Value lookup for A2 Bind.; key = FLGLSPTVWV
0.0300

---

IC50 values for the compounds below.
Target: DRB1*0901 (Homo sapiens, UniProt P01903+P01911, A100R/A103E/D57H/D86V/F55Y/F60I/F76Y/I96F/K127E/L162R/M171V/P40D/Q125H/Q99R/R33Q/R42F/S133A/S66N/T210M/V115G/W38K/Y107V/Y59G/Y89S)
Test: biochemical
Format: binding

>>> observed_measurement("CC[C@H](C)[C@H](NC(=O)[C@@H](N)CCC(=O)O)C(=O)N[C@H](C(=O)N[C@@H](CC(C)C)C(=O)N[C@@H](Cc1c[nH]cn1)C(=O)N[C@@H](CC(C)C)C(=O)N[C@@H](CCC(=O)O)C(=O)N1CCC[C@H]1C(=O)N[C@@H](CCC(N)=O)C(=O)N[C@@H](CC(N)=O)C(=O)N[C@@H](CCC(=O)O)C(=O)N[C@@H](CC(C)C)C(=O)N[C@@H](CC(=O)O)C(=O)N1CCC[C@H]1C(=O)N[C@H](C(=O)O)C(C)C)C(C)C [Peptide 1543.20]")
"> 20 µM"
>>> observed_measurement("CC[C@H](C)[C@H](NC(=O)[C@H](CC(=O)O)NC(=O)[C@H](Cc1c[nH]cn1)NC(=O)[C@@H](NC(=O)[C@@H](NC(=O)[C@@H](NC(=O)[C@H](CCC(N)=O)NC(=O)[C@H](CC(C)C)NC(=O)[C@H](CCC(=O)O)NC(=O)[C@@H](NC(=O)[C@H](CS)NC(=O)[C@@H](N)CC(C)C)[C@@H](C)O)[C@@H](C)O)[C@@H](C)O)[C@@H](C)CC)C(=O)N[C@H](C(=O)N[C@@H](CC(C)C)C(=O)N[C@@H](CCC(=O)O)C(=O)O)[C@@H](C)CC [Peptide 1543.24]")
"> 20 µM"
>>> observed_measurement("CC(C)C[C@H](NC(=O)[C@H](CC(=O)O)NC(=O)[C@@H](NC(=O)[C@@H](NC(=O)[C@H](CCC(=O)O)NC(=O)[C@@H]1CCCN1C(=O)[C@H](CCC(N)=O)NC(=O)[C@H](CC(C)C)NC(=O)[C@H](CC(=O)O)NC(=O)[C@@H](N)CC(C)C)[C@@H](C)O)[C@@H](C)O)C(=O)N[C@@H](Cc1ccc(O)cc1)C(=O)N[C@@H](CS)C(=O)N[C@@H](Cc1ccc(O)cc1)C(=O)N[C@@H](CCC(=O)O)C(=O)N[C@@H](CCC(N)=O)C(=O)O [Peptide 1543.04]")
"> 20 µM"
>>> observed_measurement("CC(C)C[C@H](NC(=O)[C@H](CC(C)C)NC(=O)[C@@H]1CCCN1C(=O)[C@@H](N)CC(N)=O)C(=O)NCC(=O)N[C@@H](C)C(=O)N[C@@H](C)C(=O)N[C@H](C(=O)N1CCC[C@H]1C(=O)N[C@H](C(=O)NCC(=O)N[C@@H](CC(N)=O)C(=O)N[C@@H](CC(N)=O)C(=O)N[C@@H](CCCCN)C(=O)N[C@@H](CCCNC(=N)N)C(=O)O)[C@@H](C)O)[C@@H](C)O [Peptide 89.0165]")
"9.38 µM"

Moving on to the next compound.
Dear colleague, I am looking for the recorded IC50 of the following compound: CC[C@H](C)[C@H](NC(=O)[C@@H](NC(=O)[C@H](Cc1c[nH]cn1)NC(=O)[C@@H](N)CC(C)C)C(C)C)C(=O)N[C@@H](CO)C(=O)N[C@@H](CC(N)=O)C(=O)N[C@@H](CC(=O)O)C(=O)N[C@H](C(=O)N[C@@H](CS)C(=O)N[C@@H](C)C(=O)N[C@@H](CCC(N)=O)C(=O)N[C@H](C(=O)N[C@@H](Cc1c[nH]cn1)C(=O)N1CCC[C@H]1C(=O)N[C@@H](CCC(N)=O)C(=O)O)C(C)C)C(C)C [Peptide 68.0077]
> 20 µM
